Molecular target: T1, MPP6, Q9NZW5
T1 sequence (Q9NZW5 125-219, limits assumed, looked up): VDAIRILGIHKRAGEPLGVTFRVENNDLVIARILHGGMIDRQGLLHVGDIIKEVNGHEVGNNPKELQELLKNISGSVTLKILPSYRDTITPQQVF
Experiment: holdup assay
Set-up: key: below the threshold = too weak to quantify, mostly under pKd 3.1 to 4
Conditions: plain residues with an end cap or a label only (N-terminal biotin on a linker: ado-ado)
property.name: pKd

[
  {
    "binder": "VYEVPVETKF [SLC26A3, P40879]",
    "pKd": "below the threshold"
  },
  {
    "binder": "QRYPGNQTTC [CCL24, O00175]",
    "pKd": "below the threshold"
  },
  {
    "binder": "GDSSRKEYFI [GYPC, P04921]",
    "pKd": 4.7
  },
  {
    "binder": "KLQNPNQSVV [TYRP1, P17643]",
    "pKd": "below the threshold"
  },
  {
    "binder": "GQNMTVSVVI [PRLHR, P49683]",
    "pKd": 3.71
  },
  {
    "binder": "GNDPDRGTSI [GRID2, O43424]",
    "pKd": "below the threshold"
  }
]

# input Look up and report measured pKd for this entry: EFKQTSSFLV [JAM1, Q9Y624]
# output below the threshold

# input # return recorded pKd for entry HLSTRQGTCV [ATRNL1, Q5VV63]
# output below the threshold

# input Return the recorded pKd value; entry: IKLETKKTKL [SLC15A2, Q16348]
# output below the threshold

# input Specify reported pKd for the binder shown: NSTHNLKDYV [CLDN20, P56880]
# output below the threshold

# input Check the records and state pKd for KAEEKPPSKV [SCN4B, Q8IWT1]
# output below the threshold

# input Report pKd for LLQEEWETVM [PTH1R, Q03431]
# output below the threshold
